# MEASURED TARGET: NRAS WT (Homo sapiens (Human), UniProt P01111+P62937)
# Sequence (P01111 whole entry): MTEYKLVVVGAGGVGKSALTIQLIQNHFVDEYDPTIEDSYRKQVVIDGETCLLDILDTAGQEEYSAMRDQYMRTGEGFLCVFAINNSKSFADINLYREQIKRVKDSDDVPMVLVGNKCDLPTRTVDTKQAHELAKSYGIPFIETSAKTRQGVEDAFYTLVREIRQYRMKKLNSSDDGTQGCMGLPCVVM
# Sequence (P62937 whole entry): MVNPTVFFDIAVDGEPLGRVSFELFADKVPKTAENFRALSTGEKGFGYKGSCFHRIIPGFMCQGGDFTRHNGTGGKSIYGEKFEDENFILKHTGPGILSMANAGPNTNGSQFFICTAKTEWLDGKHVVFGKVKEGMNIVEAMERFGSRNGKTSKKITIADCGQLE
# PROTOCOL TEXT: Ras-Raf (BRAF RBD) disruption / FRET / MOA assay, NRAS WT
# Format: biochemical
# CONDITION DETAILS: read-out: IC50* NRAS WT FRET data
pIC50: −log10 of the molar value.
RECORDED ENDPOINT: pIC50

MOLECULE: CCn1c(-c2cccnc2[C@H](C)OC)c2c3cc(ccc31)-c1cccc(c1)C[C@H](NC(=O)[C@H](C(C)C)N1CC[C@]3(CCN(C(=O)C#C[C@@H]4COCCN4C)C3)C1=O)C(=O)N1CCC[C@H](N1)C(=O)OCC(C)(C)C2 (atropisomer, axis not shown) [Example A569]
RECORDED VALUE: < 5.00

With those in mind, consider the next molecule.
Lookup: pIC50 / NRAS WT (Homo sapiens (Human), UniProt P01111+P62937) / CCn1c(-c2cccnc2[C@H](C)OC)c2c3cc(ccc31)-c1csc(n1)C[C@H](NC(=O)[C@H](C(C)C)N(C)C(=O)N1CCN(C(=O)/C=C/CN(C)C)C3(CC3)C1)C(=O)N1CCC[C@H](N1)C(=O)OCC(C)(C)C2 (atropisomer, axis not shown) [Example A701]
6.00 to 7.00

----------
Readings of IC50 for the listed compounds
# MEASURED TARGET: KRAS G12S (Homo sapiens (Human), UniProt P01116+P62937, G12S)
# Sequence (P01116-2 other isoform, or with tags, fused parts or gaps G12S, one chain of several): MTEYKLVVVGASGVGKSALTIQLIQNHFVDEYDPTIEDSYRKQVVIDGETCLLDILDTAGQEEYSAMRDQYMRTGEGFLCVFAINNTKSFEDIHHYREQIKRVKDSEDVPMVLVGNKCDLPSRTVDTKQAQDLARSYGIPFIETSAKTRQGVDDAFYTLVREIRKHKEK
# PROTOCOL TEXT: Ras-Raf (BRAF RBD) disruption / FRET / MOA assay, KRAS G12S
# Type: biochemical
# CONDITION DETAILS: Ras-Raf disruption/FRET/MOA assay; class symbols; read-out: KRAS G12S FRET data IC50

COMPOUND: C=CC(=O)N1CC[C@H](C(=O)N(C)[C@H](C(=O)N[C@H]2Cc3cc(O)cc(c3)-c3ccc4c(c3)c(c(-c3cccnc3)n4CC)CC(C)(C)COC(=O)[C@@H]3CCCN(N3)C2=O)C(C)C)C1
MEASURED TARGET: KRAS G12S (Homo sapiens (Human), UniProt P01116+P62937, G12S)
RECORDED VALUE: 1000 to 10000 nM

Switching to the query record.
Would you kindly share the measured IC50 for C=CC(=O)N(C)[C@@H]1C[C@H](C)N(C(=O)N(C)[C@H](C(=O)N[C@H]2Cc3nc(cs3)-c3ccc4c(c3)c(c(-c3cccnc3[C@H](C)OC)n4CC)CC(C)(C)COC(=O)[C@@H]3CCCN(N3)C2=O)C(C)C)C1 (atropisomer, axis not shown) ?
100 to 1000 nM

----------
# MEASURED TARGET: KRAS G13D (Homo sapiens (Human), UniProt P01116+P62937, G13D)
# Sequence (P01116-2 other isoform, or with tags, fused parts or gaps G13D, one chain of several): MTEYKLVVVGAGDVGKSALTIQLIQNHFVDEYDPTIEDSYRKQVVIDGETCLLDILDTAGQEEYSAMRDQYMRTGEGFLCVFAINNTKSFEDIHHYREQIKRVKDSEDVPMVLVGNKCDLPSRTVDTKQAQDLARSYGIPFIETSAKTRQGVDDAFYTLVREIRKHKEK
# PROTOCOL TEXT: Ras-Raf (BRAF RBD) disruption / FRET / MOA assay, KRAS G13D
# Type: biochemical
# CONDITION DETAILS: read-out: IC50* KRAS G13D FRET data
pIC50: −log10 of the molar value.
Quick list: pIC50 per entry.

COMPOUND: C=CC(=O)N1CC[C@H](C(=O)N(C)[C@H](C(=O)N[C@H]2Cc3nc(cs3)-c3ccc4c(c3)c(c(-c3cc5c(nc3[C@H](C)OC)CCN(C)C5)n4CC)CC(C)(C)COC(=O)[C@@H]3CCCN(N3)C2=O)C(C)C)C1 (atropisomer, axis not shown)
RECORDED ENDPOINT: pIC50
RECORDED VALUE: 5.00 to 6.00

COMPOUND: CCn1c(-c2ccccc2CCOC)c2c3cc(ccc31)-c1cc(O)cc(c1)C[C@H](NC(=O)[C@H](C(C)C)N(C)C(=O)c1ccc(NC(=O)/C=C/CN(C)C)cc1)C(=O)N1CCC[C@H](N1)C(=O)OCC(C)(C)C2
RECORDED ENDPOINT: pIC50
RECORDED VALUE: < 5.00

pIC50 lookup needed for CCn1c(-c2cccnc2[C@H](C)OC)c2c3cc(ccc31)-c1cccc(c1)C[C@H](NC(=O)[C@@H](COC1CN(C(=O)C#CC(C)(C)N(C)C3CC3)C1)C(C)C)C(=O)N1CCC[C@H](N1)C(=O)OCC(C)(C)C2 (atropisomer, axis not shown) , thanks.
< 5.00

Reported pIC50, compound C=CC(=O)N1CCC2(CC1)CN(C(=O)N(C)[C@H](C(=O)N[C@H]1Cc3nc(cs3)-c3ccc4c(c3)c(c(-c3cccnc3[C@H](C)OC)n4CC)CC(C)(C)COC(=O)[C@@H]3CCCN(N3)C1=O)C(C)C)C2 (atropisomer, axis not shown) : ____
5.00 to 6.00

Reported pIC50 for C=CC(=O)N1CC[C@H](C(=O)N(C)[C@H](C(=O)N[C@H]2Cc3cc(O)cc(c3)-c3ccc4c(c3)c(c(-c3cnc(N(C)C)s3)n4CC)CC(C)(C)COC(=O)[C@@H]3CCCN(N3)C2=O)C(C)C)C1 : what is it?
5.00 to 6.00

Entry under review: CCn1c(-c2cccnc2[C@H](C)OC)c2c3cc(ccc31)N1CCO[C@@H](C[C@H](NC(=O)[C@@H](COC3CN(C(=O)C#CC(C)(C)N(C)C)C3)C(C)C)C(=O)N3CCC[C@H](N3)C(=O)OCC(C)(C)C2)C1 (atropisomer, axis not shown) . Reported pIC50?
< 5.00

Requested read-out: pIC50. Entry: CCn1c(-c2cccnc2[C@H](C)OC)c2c3cc(ccc31)-c1csc(n1)C[C@H](NC(=O)[C@H](C(C)C)N(C)C(=O)N1CCC3(CC1)CN(C(=O)/C=C/CN1CCCCC1)C3)C(=O)N1CCC[C@H](N1)C(=O)OCC(C)(C)C2 (atropisomer, axis not shown)
6.00 to 7.00

Which measured pIC50 value corresponds to C=CC(=O)N1CC[C@H](C(=O)N(C)[C@H](C(=O)NC2C[C@@H]3CN(CCO3)c3ccc4c(c3)c(c(-c3cccnc3[C@H](C)OC)n4CC)CC(C)(C)COC(=O)[C@@H]3CC(Br)CN(N3)C2=O)C(C)C)C1 (stereo partly drawn) ?
< 5.00

Field request: pIC50 | item: C=CC(=O)N1C[C@H](C)N(C(=O)N(C)[C@H](C(=O)N[C@H]2Cc3nc(cs3)-c3ccc4c(c3)c(c(-c3cccnc3[C@H](C)OC)n4CC)CC(C)(C)COC(=O)[C@@H]3CCCN(N3)C2=O)C(C)C)CC12CC2 (atropisomer, axis not shown)
5.00 to 6.00

Query (compound): C=CC(=O)N1CC2(CCN2C(=O)N(C)[C@H](C(=O)N[C@H]2Cc3nc(n(C)n3)-c3ccc4c(c3)c(c(-c3cccnc3[C@H](C)OC)n4CC)CC(C)(C)COC(=O)[C@@H]3CCCN(N3)C2=O)C(C)C)C1 (atropisomer, axis not shown) ; field requested: pIC50
6.00 to 7.00

Any idea what pIC50 was measured for CCn1c(-c2cccnc2[C@H](C)OC)c2c3cc(ccc31)-c1csc(n1)C[C@H](NC(=O)[C@H](C(C)C)N(C)C(=O)N1CCN(C(=O)/C=C/CN(C)C)C[C@@H]1C)C(=O)N1CCC[C@H](N1)C(=O)OCC(C)(C)C2 (atropisomer, axis not shown) ?
6.00 to 7.00

Item under review: C=CC(=O)N1CC[C@H](C(=O)N(C)[C@H](C(=O)N[C@H]2Cc3nc(ns3)-c3ccc4c(c3)c(c(-c3cncnc3)n4CC)CC(C)(C)COC(=O)[C@@H]3CCCN(N3)C2=O)C(C)C)C1 . Reported pIC50?
< 5.00

Given the entry C=CC(=O)N1CCN(C(=O)N(C)[C@H](C(=O)N[C@H]2Cc3nc(cs3)-c3ccc4c(c3)c(c(-c3cccnc3[C@H](C)OC)n4CC)CC(C)(C)COC(=O)[C@@H]3CCCN(N3)C2=O)C(C)C)[C@@H](C)C1 (atropisomer, axis not shown) , report its measured pIC50.
6.00 to 7.00

Field request: pIC50 | item: C=CC(=O)N1CC[C@]2(C1)CN(C(=O)N(C)[C@H](C(=O)N[C@H]1Cc3nc(cs3)-c3ccc4c(c3)c(c(-c3cccnc3[C@H](C)OC)n4CC)CC(C)(C)COC(=O)[C@@H]3CCCN(N3)C1=O)C(C)C)CCO2 (atropisomer, axis not shown)
6.00 to 7.00

Return reported pIC50; argument: C=CC(=O)N1CC[C@H](C(=O)N(C)[C@H](C(=O)N[C@H]2Cc3cc(O)cc(c3)-c3ccc4nc(-c5cccnc5[C@H](C)OC)n(c4c3)CC(C)(C)COC(=O)[C@@H]3CCCN(N3)C2=O)C(C)C)C1
< 5.00
